In this section, each of the binders is paired with its reported percentage of input antibody bound.
- Tested System: T1, human glycophorin A on human red blood cells or red blood cell membranes (human, UniProt P02724 20-150)
- T1 construct: whole, on cells; also called hRBC; human RBC membranes
- T1 sequence (looked up): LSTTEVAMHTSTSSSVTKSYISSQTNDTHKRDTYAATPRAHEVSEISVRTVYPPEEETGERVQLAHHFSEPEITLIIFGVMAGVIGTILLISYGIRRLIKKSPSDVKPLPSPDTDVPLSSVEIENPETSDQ
- Method: Fab 7 ug/ml on intact human RBC, unbound Fab by ELISA; pre-dilution

{"Binder": "TPP-7794, affinity matured 6C12 Fab (Fab, V domains shown, Tested as Fab) VH: EVQLVQSGAEVKKPGASVKVSCKASGYTFTTYAIHWVRQAPGQGLEWMGYINPSSGYTRYNPKFKHRVTMTRDKSTSTAYMELRSLRSDDTAVYYCWTGTRDYWGQGTTVTVSS VL: DIQLTQSPSFLSASVGDRVTITCRASSSVRYIYWFQQKPGKAPKLLIYATSFRQSGVPSRFSGSGSGTEYTLTISSLQPEDFATYYCHQRNSFPYTFGQGTKLEIK", "percentage of input antibody bound, %": 93}
{"Binder": "TPP-7782, affinity matured 6C12 Fab (Fab, V domains shown, Tested as Fab) VH: EVQLVQSGAEVKKPGASVKVSCKASGYTFTTYTIHWVRQAPGQGLEWMGYINPSSGYTRYNPKFKGRVTMTRDKSTSTAYMELRSLRSDDTAVYYCQTGTRDYWGQGTTVTVSS VL: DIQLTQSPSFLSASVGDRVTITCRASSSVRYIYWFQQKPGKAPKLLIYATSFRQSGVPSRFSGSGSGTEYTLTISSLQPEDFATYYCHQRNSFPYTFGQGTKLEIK", "percentage of input antibody bound, %": 99}
{"Binder": "TPP-7796, affinity matured 6C12 Fab (Fab, V domains shown, Tested as Fab) VH: EVQLVQSGAEVKKPGASVKVSCKASGYTFTTYTIHWVRQAPGQGLEWMGYINPKSGWTRYNPKFKGRVTMTRDKSTSTAYMELRSLRSDDTAVYYCQTGTRDYWGQGTTVTVSS VL: DIQLTQSPSFLSASVGDRVTITCRASSSVSYIYWFQQKPGKAPKLLIYATSTLQSGVPSRFSGSGSGTEYTLTISSLQPEDFATYYCHQRNSFPYTFGQGTKLEIK", "percentage of input antibody bound, %": 96}
